Each recorded value in this set is attributed to patent US11866430B2.

# assay.target: UniProt:Q13574
# protocol: DGKζ assay (detergent/lipid micelle substrate)
# Type: biochemical
# conditions.used: detergent/lipid micelle substrate; read-out: DGKζ IC50
pIC50: −log10 of the molar value.
quantity.measured: pIC50

Some solved cases for reference:
- structure.smiles: "Cn1c(=O)c(C#N)c(N2CCN(Cc3cccc4c3NCC4)CC2)c2nc(Cl)ccc21"
  value.measured: 4.27
- structure.smiles: "Cc1ccc2c(n1)c(N1CCN(Cc3ccccc3O)CC1)c(C#N)c(=O)n2C"
  value.measured: "< 4.09"
- structure.smiles: "Cn1c(=O)c(C#N)c(N2CCN(Cc3cccc4cn[nH]c34)CC2)c2nc(Cl)ccc21"
  value.measured: "< 3.62"
- structure.smiles: "Cn1c(=O)c(C#N)c(N2CCN(Cc3cc(OC(F)(F)F)ccc3O)CC2)c2nc(Br)ccc21"
  value.measured: "< 3.62"
- structure.smiles: "Cn1c(=O)c(C#N)c(N2CCN(Cc3cc(F)cc(F)c3O)CC2)c2nc(Cl)ccc21"
  value.measured: 4.57

Determine its reported pIC50: Cn1c(=O)c(C#N)c(N2CCN(Cc3ccccc3F)CC2)c2nc(Cl)ccc21
< 3.62

Determine its reported pIC50: COCCOCCCn1c(=O)c([N+](=O)[O-])c(N2CCN(C(c3ccccc3)c3ccccc3)CC2)c2ncccc21
< 3.62

Determine its reported pIC50: Cn1c(=O)c(C#N)c(N2CCN(Cc3cc(Cl)ccc3O)CC2)c2nc(Br)ccc21
< 3.62

---

# assay.target: human DGKζ (Homo sapiens (Human), UniProt Q13574)
# Sequence (Q13574 other isoform, or with tags, fused parts or gaps): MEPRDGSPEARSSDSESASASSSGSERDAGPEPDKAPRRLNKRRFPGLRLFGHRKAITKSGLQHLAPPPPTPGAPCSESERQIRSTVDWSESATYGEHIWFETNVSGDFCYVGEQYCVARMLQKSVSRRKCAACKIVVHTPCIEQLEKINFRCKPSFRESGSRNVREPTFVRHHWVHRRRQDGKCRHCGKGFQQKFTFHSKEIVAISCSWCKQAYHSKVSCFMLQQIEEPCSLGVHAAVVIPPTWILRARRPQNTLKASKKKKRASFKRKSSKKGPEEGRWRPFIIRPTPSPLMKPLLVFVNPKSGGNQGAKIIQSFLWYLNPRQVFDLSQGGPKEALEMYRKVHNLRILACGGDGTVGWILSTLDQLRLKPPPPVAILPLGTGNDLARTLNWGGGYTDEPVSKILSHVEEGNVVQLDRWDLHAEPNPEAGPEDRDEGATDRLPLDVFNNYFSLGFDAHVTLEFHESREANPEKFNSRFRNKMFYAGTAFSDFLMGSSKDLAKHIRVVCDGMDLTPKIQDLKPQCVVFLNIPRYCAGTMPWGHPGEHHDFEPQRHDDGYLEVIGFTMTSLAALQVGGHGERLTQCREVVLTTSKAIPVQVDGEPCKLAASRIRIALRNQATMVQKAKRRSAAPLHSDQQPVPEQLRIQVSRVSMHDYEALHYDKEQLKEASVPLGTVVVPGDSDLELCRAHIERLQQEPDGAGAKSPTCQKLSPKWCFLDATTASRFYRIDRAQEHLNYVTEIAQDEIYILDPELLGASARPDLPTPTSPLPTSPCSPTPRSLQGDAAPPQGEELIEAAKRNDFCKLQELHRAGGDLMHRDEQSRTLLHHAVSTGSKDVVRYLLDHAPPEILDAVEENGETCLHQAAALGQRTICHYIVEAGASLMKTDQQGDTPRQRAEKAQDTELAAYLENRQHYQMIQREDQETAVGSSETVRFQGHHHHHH
# protocol: DGKζ assay (detergent/lipid micelle substrate)
# Assay type: biochemical
# conditions.used: detergent/lipid micelle substrate; read-out: DGKζ IC50
quantity.measured: log10(IC50) (log10 of the value in µM)
All values: base-10 log of IC50 in µM.

Some solved cases for reference:
- compound: "Cn1c(=O)c(C#N)c(N2CCN(Cc3cccc4ccccc34)CC2)c2nc(C#N)ccc21"
  quantity.measured: "log10(IC50)"
  value.measured: 1.80
- compound: "Cn1c(=O)c(C#N)c(N2CCN(Cc3cc(F)ccc3F)CC2)c2nc(Cl)ccc21"
  quantity.measured: "log10(IC50)"
  value.measured: 2.15
- compound: "CC(c1ccc(F)cc1)N1CCN(c2c([N+](=O)[O-])c(=O)n(C)c3ccc(C#N)nc23)CC1 (stereo not drawn) [Example 43]"
  quantity.measured: "log10(IC50)"
  value.measured: 0.80
- compound: "Cc1ccc(CN2CCN(c3c(C#N)c(=O)n(C)c4ccc(Cl)nc34)CC2)cc1O"
  quantity.measured: "log10(IC50)"
  value.measured: 2.08
- compound: "C#CCn1c(=O)c([N+](=O)[O-])c(N2CCN(C(c3ccc(F)cc3)c3ccc(F)cc3OC)CC2)c2nc(C#N)ccc21 (single isomer, unassigned) [Example 128]"
  quantity.measured: "log10(IC50)"
  value.measured: 0.18

Determine its reported log10(IC50): COc1cc(F)ccc1C(c1ccc(F)cc1)N1CCN(c2c(C#N)c(=O)n(C)c3ccc(Br)nc23)CC1 (racemic) [Example 15]
1.76

Determine its reported log10(IC50): Cn1c(=O)c(C#N)c(N2CCN(Cc3cccc4cc[nH]c34)CC2)c2nc(Br)ccc21
2.00

---

# assay.target: UniProt:Q13574
# protocol: DGKζ assay (detergent/lipid micelle substrate)
# Type: biochemical
# conditions.used: detergent/lipid micelle substrate; read-out: DGKζ IC50
# Procedure: The DGKα and DGKζ reactions were performed using either extruded liposome (DGKα and DGKζ LIPGLO assays) or detergent/lipid micelle substrate (DGKα and DGKζ assays). […] The compound inhibition studies were carried out as follows: 50 nL droplets of each test compound (top concentration 10 mM with 11 point, 3-fold dilution series for each compound) solubilized in DMSO were transferred to wells of a white 1536 well plate (Corning 3725). […] Luminescence was recorded using an EnVision microplate reader. […]
# pIC50 values compiled below
pIC50 here: minus log base 10 of the concentration, concentration in moles per litre.

Some solved cases for reference:
- compound: "CCn1ccc2c(CN3CCN(c4c(C#N)c(=O)n(C)c5ccc(Cl)nc45)CC3)cccc21"
  pIC50: 4.05
- compound: "Cn1c(=O)c(C#N)c(N2CCN(Cc3cccc(Cl)c3O)CC2)c2nc(Cl)ccc21"
  pIC50: 4.24
- compound: "Cc1cccc(CN2CCN(c3c(C#N)c(=O)n(C)c4ccc(Cl)nc34)CC2)c1F"
  pIC50: 4.31
- compound: "COc1cc(F)ccc1C(c1ccc(F)cc1)N1CCN(c2c(C#N)c(=O)n(C)c3ccc(Br)nc23)CC1 (single isomer, unassigned) [Example 17]"
  pIC50: 3.74

Determine its reported pIC50: C=CCOc1cccc(C)c1C(c1ccc(F)cc1)N1CCN(c2c([N+](=O)[O-])c(=O)n(C)c3ccc(Br)nc23)CC1 (single isomer, unassigned) [Example 96]
4.28

Determine its reported pIC50: Cc1ccccc1C(c1ccccc1O)N1CCN(c2c([N+](=O)[O-])c(=O)n(C)c3ccc(Br)nc23)CC1 (stereo not drawn)
5.68

---

# assay.target: human DGKα (Homo sapiens (Human), UniProt P23743)
# Sequence (P23743 other isoform, or with tags, fused parts or gaps): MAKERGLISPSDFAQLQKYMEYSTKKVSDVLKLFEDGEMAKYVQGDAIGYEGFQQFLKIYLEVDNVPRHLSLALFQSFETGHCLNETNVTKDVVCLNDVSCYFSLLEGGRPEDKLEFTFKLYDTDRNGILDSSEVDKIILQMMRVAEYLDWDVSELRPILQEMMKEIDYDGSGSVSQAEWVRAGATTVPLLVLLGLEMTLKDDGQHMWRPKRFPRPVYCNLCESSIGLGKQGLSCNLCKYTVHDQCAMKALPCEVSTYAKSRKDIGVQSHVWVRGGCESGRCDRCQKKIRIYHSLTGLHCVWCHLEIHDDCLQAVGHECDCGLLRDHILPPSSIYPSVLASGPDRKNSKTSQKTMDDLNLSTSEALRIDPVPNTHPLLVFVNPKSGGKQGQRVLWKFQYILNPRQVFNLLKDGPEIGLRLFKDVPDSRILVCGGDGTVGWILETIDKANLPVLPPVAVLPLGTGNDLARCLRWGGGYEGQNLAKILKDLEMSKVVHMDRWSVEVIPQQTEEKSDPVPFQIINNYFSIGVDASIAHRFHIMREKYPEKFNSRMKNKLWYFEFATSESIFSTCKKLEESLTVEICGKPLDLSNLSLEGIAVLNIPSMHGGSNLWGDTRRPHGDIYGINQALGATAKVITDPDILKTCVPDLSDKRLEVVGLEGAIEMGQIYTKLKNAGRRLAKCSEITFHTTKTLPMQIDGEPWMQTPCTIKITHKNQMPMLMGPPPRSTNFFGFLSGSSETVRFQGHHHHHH
# protocol: DGKα LIPGLO assay (extruded liposome substrate)
# Type: biochemical
# IC50 values compiled below
Just the number please, in nM, no unit attached.

Some solved cases for reference:
- molecule: "C=CCOc1cc(F)ccc1C(C)N1CCN(c2c(C#N)c(=O)n(C)c3ccc(Cl)nc23)CC1 (stereo not shown)"
  assay.target: "human DGKα (Homo sapiens (Human), UniProt P23743)"
  readout.units: "nM"
  IC50: 1700
- molecule: "Cn1c(=O)cc(N2CCN(C(c3ccc(F)cc3)c3ccc(F)cc3)CC2)c2ncccc21"
  assay.target: "human DGKα (Homo sapiens (Human), UniProt P23743)"
  readout.units: "nM"
  IC50: 170000
- molecule: "C#CCn1c(=O)c([N+](=O)[O-])c(N2CCN(C(c3ccc(F)cc3)C3CC3)CC2)c2nc(C#N)ccc21 (single isomer, unassigned)"
  assay.target: "human DGKα (Homo sapiens (Human), UniProt P23743)"
  readout.units: "nM"
  IC50: 3400

# context switch: different molecule, same IC50
Determine its reported IC50: Cn1c(=O)c(C#N)c(N2CCN(C(CC(C)(C)C)c3ccc(F)cc3)CC2)c2nc(Cl)ccc21 (single isomer, unassigned) [Example 378]
2200

---

# pIC50 values compiled below
# assay.target: UniProt:Q13574
# protocol: DGKζ LIPGLO assay (extruded liposome substrate)
# Format: biochemical
# conditions.used: extruded liposome substrate; read-out: DGKζ LIPGLO IC50
pIC50 here: minus log base 10 of the concentration, concentration in moles per litre.

Some solved cases for reference:
- molecule: "COc1ccc2c(n1)c(N1CCN(C(c3ccc(F)cc3OC)c3ccc(F)cc3OC)CC1)c(C#N)c(=O)n2C"
  assay.target: "UniProt:Q13574"
  quantity.measured: "pIC50"
  value.measured: 5.46
- molecule: "N#CCCCn1c(=O)c([N+](=O)[O-])c(N2CCN(C(c3ccccc3)c3ccccc3)CC2)c2ncccc21"
  assay.target: "UniProt:Q13574"
  quantity.measured: "pIC50"
  value.measured: 4.68
- molecule: "Cc1ccc(C(c2ccccc2)N2CCN(c3c(C#N)c(=O)n(C)c4ccc(C#N)nc34)CC2)cc1 (stereo not shown)"
  assay.target: "UniProt:Q13574"
  quantity.measured: "pIC50"
  value.measured: 5.96
- molecule: "CC(c1ccc(F)cc1)N1CCN(c2c(C#N)c(=O)n(C)c3ccc(Cl)nc23)CC1 (single isomer, unassigned) [Example 388]"
  assay.target: "UniProt:Q13574"
  quantity.measured: "pIC50"
  value.measured: 3.89
- molecule: "Cn1c(=O)c(C#N)c(N2CCN(Cc3cc(F)ccc3O)CC2)c2nc(Cl)ccc21"
  assay.target: "UniProt:Q13574"
  quantity.measured: "pIC50"
  value.measured: 4.80

Determine its reported pIC50: COc1ccc2c(n1)c(N1CCN(C(c3ccc(F)cc3)c3ccc(F)cc3OC)CC1)c(C#N)c(=O)n2C (racemic) [Example 412]
6.22

Determine its reported pIC50: CCCCn1c(=O)c([N+](=O)[O-])c(N2CCN(C(c3ccccc3)c3ccccc3)CC2)c2ncccc21
5.01

---

# assay.target: human DGKζ (Homo sapiens (Human))
# protocol: DGKζ LIPGLO assay (extruded liposome substrate)
# Assay type: biochemical
# conditions.used: extruded liposome substrate; read-out: DGKζ LIPGLO IC50
IC50 under 6 µM gets MET, anything at or over 6 µM gets NOT MET.

Past entries and their recorded results:
- molecule: "Cn1c(=O)c(C#N)c(N2CCN(Cc3cc(F)cc(C(F)(F)F)c3)CC2)c2nc(Cl)ccc21"
  qualitative.label: "NOT MET"
- molecule: "Cc1cccc(O)c1CN1CCN(c2c(C#N)c(=O)n(C)c3ccc(Cl)nc23)CC1"
  qualitative.label: "MET"
- molecule: "Cc1cccc(Cl)c1CN1CCN(c2c(C#N)c(=O)n(C)c3ccc(Cl)nc23)CC1"
  qualitative.label: "NOT MET"
- molecule: "COc1cccnc1C(c1ccc(F)cc1)N1CCN(c2c(C#N)c(=O)n(C)c3ccc(C#N)nc23)CC1 (stereo not shown)"
  qualitative.label: "MET"
- molecule: "CC(C)C(c1ccc(F)cc1)N1CCN(c2c(C#N)c(=O)n(C)c3ccc(Cl)nc23)CC1 (single isomer, unassigned) [Example 315]"
  qualitative.label: "MET"

API: query returns whether the molecule falls strictly under 6 µM in IC50. Query: Cn1c(=O)c(C#N)c(N2CCN(Cc3ccc(Cl)c(O)c3)CC2)c2nc(C#N)ccc21
NOT MET

API: query returns whether the molecule falls strictly under 6 µM in IC50. Query: COc1ccc2c(n1)c(N1CCN(C(c3ccc(F)cc3)c3ccccn3)CC1)c(C#N)c(=O)n2C (stereo not shown)
MET
